- Tested on: P. falciparum NF54
- Measurement Description: In vitro antiplasmodial activity, P. falciparum NF54 (CQ-S clone)
- Format: cell-based
- Stated Conditions: Plasmodium falciparum, NF54, read-out: IC50 (nM) NF54
# maps each entry to its IC50

{"Compound": "Clc1cccc(C(Nc2ccnc3cc(Cl)ccc23)c2ccc(CN3CCOCC3)cc2)c1 (racemic) [Compound 9b]", "IC50": "155 nM"}
{"Compound": "Clc1ccc(C(Nc2ccnc3cc(Cl)ccc23)c2ccc(CN3CCCC3)cc2)cc1 (racemic) [Compound 9e]", "IC50": "15 nM"}
{"Compound": "FC(F)(F)c1ccc2c(NC(c3cccc(Cl)c3)c3ccc(CN4CCOCC4)c(Cl)c3)ccnc2c1 (racemic) [Compound 9j]", "IC50": "163 nM"}
{"Compound": "CCN(CC)CCCC(C)Nc1ccnc2cc(Cl)ccc12 (centres unmarked) [CQ, chloroquine, reference compound]", "IC50": "7 nM"}
{"Compound": "FC(F)(F)c1ccc2c(NC(c3ccc(Cl)cc3)c3ccc(CN4CCCC4)cc3)ccnc2c1 (racemic) [Compound 9k]", "IC50": "20 nM"}

* * *

- Measurement Description: Cytotoxicity on NSO cells
- Format: cell-based
- Stated Conditions: mouse, NSO cells (plasmocytoma murine cell line); read-out: TC50 (μM) NSO cells
# maps each entry to its CC50

{"Molecule": "Clc1ccc(C(Nc2ccnc3cc(Cl)ccc23)c2ccc(CN3CCCC3)cc2)cc1 (racemic)", "CC50 / µM": 8.65}
{"Molecule": "Clc1ccc(C(Nc2ccnc3cc(Cl)ccc23)(c2ccccc2)c2ccc(CN3CCCC3)cc2)cc1 (racemic) [Compound 15a]", "CC50 / µM": 14.9}
{"Molecule": "Clc1cccc(C(Nc2ccnc3cc(Cl)ccc23)c2ccc(CN3CCOCC3)cc2)c1 (racemic)", "CC50 / µM": 44.7}
{"Molecule": "FC(F)(F)c1ccc2c(NC(c3ccc(Cl)cc3)c3ccc(CN4CCCC4)cc3)ccnc2c1 (racemic)", "CC50 / µM": 12.1}

* * *

- Tested on: Aspergillus flavus ATCC ® 204304
- Measurement Description: Antifungal susceptibility (CLSI broth dilution), Aspergillus flavus
- Assay type: cell-based
- Stated Conditions: CLSI protocol, reference strain
- Description: (1) National Committee for Clinical Laboratory Standards. (2002). Reference method for broth dilution antifungal susceptibility testing of yeasts—Second Edition: Approved Standard, M27-A2. NCCLS, Wayne, Pa.; and (2) National Committee for Clinical Laboratory Standards. Reference method for broth dilution antifungal susceptibility testing of filamentous fungi: Approved Standard, M38-A. 2002; NCCLS, Wayne, Pa.
# maps each entry to its antifungal susceptibility value (MIC), Aspergillus flavus ATCC 204304
Metric Name: antifungal susceptibility value (MIC), Aspergillus flavus ATCC 204304 (µg/mL)

{"Molecule": "Clc1ccccc1C(c1ccccc1)(c1ccccc1)n1ccnc1 [CLT, clotrimazole, reference compound]", "Value Observed": 4}
{"Molecule": "CCC(C)n1ncn(-c2ccc(N3CCN(c4ccc(OCC5COC(Cn6cncn6)(c6ccc(Cl)cc6Cl)O5)cc4)CC3)cc2)c1=O (stereo not shown) [ITRA, itraconazole, reference compound]", "Value Observed": 0.06}

* * *

- System: KB cell (human carcinoma of the nasopharynx cell line)
- Measurement Description: Cytotoxicity on KB cells
- Format: cell-based

{"Compound": "Clc1ccccc1C(c1ccccc1)(c1ccccc1)n1ccnc1 [CLT, clotrimazole, reference compound]", "Result Units": "µM", "TC50 (μM) KB cell": 88.1}
{"Compound": "FC(F)(F)c1ccc2c(NC(c3ccc(Cl)cc3)c3ccc(CN4CCCC4)cc3)ccnc2c1 (racemic) [Compound 9k]", "Result Units": "µM", "TC50 (μM) KB cell": 5.49}
{"Compound": "Clc1ccc(C(Nc2ccnc3cc(Cl)ccc23)c2ccc(CN3CCCC3)cc2)cc1 (racemic) [Compound 9e]", "Result Units": "µM", "TC50 (μM) KB cell": 19.61}
{"Compound": "CCN(CC)CCCC(C)Nc1ccnc2cc(Cl)ccc12 (stereo not shown) [CQ, chloroquine, reference compound]", "Result Units": "µM", "TC50 (μM) KB cell": 207.0}

* * *

# maps each entry to its CC50
- Measurement Description: Cytotoxicity on normal human lymphocytes
- Assay type: cell-based
- Stated Conditions: normal human lymphocytes PHA-stimulated; read-out: TC50 (μM) Normal human lymphocytes
Metric Name: CC50

{"Compound": "Clc1cccc(C(Nc2ccnc3cc(Cl)ccc23)c2ccc(CN3CCOCC3)cc2)c1 (racemic) [Compound 9b]", "Value Observed": "40.8 µM"}
{"Compound": "FC(F)(F)c1ccc2c(NC(c3ccc(Cl)cc3)c3ccc(CN4CCCC4)cc3)ccnc2c1 (racemic) [Compound 9k]", "Value Observed": "24.2 µM"}
{"Compound": "Clc1ccc(C(Nc2ccnc3cc(Cl)ccc23)(c2ccccc2)c2ccc(CN3CCCC3)cc2)cc1 (racemic) [Compound 15a]", "Value Observed": "18.6 µM"}
{"Compound": "Clc1ccc(C(Nc2ccnc3cc(Cl)ccc23)c2ccc(CN3CCCC3)cc2)cc1 (racemic) [Compound 9e]", "Value Observed": "17.3 µM"}

* * *

# maps each entry to its CC50
- Measurement Description: Cytotoxicity on Daudi cells
- Assay type: cell-based
- Stated Conditions: human, Daudi cells (human lymphoblastoid cell line); read-out: TC50 (μM) Daudi cells

{"Compound": "Clc1ccc(C(Nc2ccnc3cc(Cl)ccc23)(c2ccccc2)c2ccc(CN3CCCC3)cc2)cc1 (racemic) [Compound 15a]", "CC50 (µM)": 16.7}
{"Compound": "FC(F)(F)c1ccc2c(NC(c3ccc(Cl)cc3)c3ccc(CN4CCCC4)cc3)ccnc2c1 (racemic)", "CC50 (µM)": 14.1}
{"Compound": "Clc1cccc(C(Nc2ccnc3cc(Cl)ccc23)c2ccc(CN3CCOCC3)cc2)c1 (racemic)", "CC50 (µM)": 43.9}
{"Compound": "Clc1ccc(C(Nc2ccnc3cc(Cl)ccc23)c2ccc(CN3CCCC3)cc2)cc1 (racemic)", "CC50 (µM)": 8.65}

* * *

# maps each entry to its antifungal susceptibility value (MIC), Aspergillus fumigatus MGMI 4
- Tested on: Aspergillus fumigatus MGMI 4
- Measurement Description: Antifungal susceptibility (CLSI broth dilution), Aspergillus fumigatus MGMI 4
- Format: cell-based
- Stated Conditions: CLSI protocol, clinical isolate
- From the text: (1) National Committee for Clinical Laboratory Standards. (2002). Reference method for broth dilution antifungal susceptibility testing of yeasts—Second Edition: Approved Standard, M27-A2. NCCLS, Wayne, Pa.; and (2) National Committee for Clinical Laboratory Standards. Reference method for broth dilution antifungal susceptibility testing of filamentous fungi: Approved Standard, M38-A. 2002; NCCLS, Wayne, Pa.
Metric Name: antifungal susceptibility value (MIC), Aspergillus fumigatus MGMI 4 (µg/mL)

{"Compound": "Clc1ccccc1C(c1ccccc1)(c1ccccc1)n1ccnc1 [CLT, clotrimazole, reference compound]", "Result Units": "µg/mL", "Value Observed": 4}
{"Compound": "CCC(C)n1ncn(-c2ccc(N3CCN(c4ccc(OCC5COC(Cn6cncn6)(c6ccc(Cl)cc6Cl)O5)cc4)CC3)cc2)c1=O (stereo not shown) [ITRA, itraconazole, reference compound]", "Result Units": "µg/mL", "Value Observed": 0.06}

* * *

- System: Candida parapsilosis ATCC ® 22019
- Measurement Description: Antifungal susceptibility (CLSI broth dilution), Candida parapsilosis
- Type: cell-based
- Stated Conditions: CLSI protocol, quality control strain
# maps each entry to its antifungal susceptibility value (MIC), Candida parapsilosis ATCC 22019
Metric Name: antifungal susceptibility value (MIC), Candida parapsilosis ATCC 22019

{"Compound": "FC(F)(F)c1ccc2c(NC(c3ccc(Cl)cc3)c3ccc(CN4CCCC4)cc3)ccnc2c1 (racemic) [Compound 9k]", "Value Observed": 16}
{"Compound": "Clc1ccc(C(Nc2ccnc3cc(Cl)ccc23)c2ccc(CN3CCCC3)cc2)cc1 (racemic) [Compound 9e]", "Value Observed": 16}

* * *

- Test system: P. falciparum W2
- Measurement Description: microbe, parasite or virus in culture
- Format: cell-based
- Stated Conditions: Plasmodium falciparum, W2, read-out: IC50 (nM) W2
# maps each entry to its IC50

{"Molecule": "Clc1cccc(C(Nc2ccnc3cc(Cl)ccc23)c2ccc(CN3CCOCC3)cc2)c1 (racemic)", "Result Units": "nM", "IC50": 220}
{"Molecule": "CCN(CC)CCCC(C)Nc1ccnc2cc(Cl)ccc12 (stereo not shown) [CQ, chloroquine, reference compound]", "Result Units": "nM", "IC50": 280}
{"Molecule": "Clc1ccc(C(Nc2ccnc3cc(Cl)ccc23)c2ccc(CN3CCCC3)cc2)cc1 (racemic)", "Result Units": "nM", "IC50": 72.1}
{"Molecule": "FC(F)(F)c1ccc2c(NC(c3ccc(Cl)cc3)c3ccc(CN4CCCC4)cc3)ccnc2c1 (racemic)", "Result Units": "nM", "IC50": 90.5}
